- Tested on: CYP72A1 P450
- METHOD: Metabolism of pesticide substrates by the CYP72A1 P450 expressed with a reductase (yeast microsomes, [14C]-labeled substrates, HPLC)
- Assay type: in vitro ADME, Zea mays (maize)
- COND: expressed in the presence of a reductase; chromatographs FIGS. 8-11
MEASURE_NAME: metabolism of the substrate by the CYP72A1 P450

CON(C)C(=O)Nc1ccc(Cl)c(Cl)c1 [linuron] | Unmetabolized
CC(C)N1C(=O)c2ccccc2NS1(=O)=O [bentazon] | shown to metabolize
Cc1ccc(NC(=O)N(C)C)cc1Cl [chlortoluron] | shown to metabolize
COc1cc(Cl)nc(NC(=O)NS(=O)(=O)c2ccccc2C(=O)O)n1 [chlorimuron] | shown to metabolize
CCc1cccc(CC)c1N(COC)C(=O)CCl [alachlor] | Unmetabolized
CCOC(=O)CC(SP(=S)(OC)OC)C(=O)OCC (stereo not shown) [malathion] | shown to metabolize
O=C(O)COc1ccc(Cl)cc1Cl [2,4-D] | Unmetabolized
